The entries below come with measured bioavailability values attached.
# testDetails: Oral bioavailability in rat at 10 mg/kg, po
# Format: ADME, organism-based
# conditionSet: in vivo
readoutKind: bioavailability (%)

1) CC(C)(CC(=O)N[C@H]1C[C@@H]1c1cccc(F)c1)NCC(=O)N1C[C@@H](F)C[C@H]1C#N: 29
2) CC(C)(CC(=O)N[C@H]1C[C@@H]1c1cccc(Cl)c1)NCC(=O)N1C[C@@H](F)C[C@H]1C#N: 42
